- Tested on: colon tumor cells (HT29)
- protocol_text: MTT cell growth inhibition, HT29 colon tumor cells
- Assay type: cell-based
- condition_notes: 3-6 days incubation, read-out: IC50 Human Colon Carcinoma
recorded_metric: IC50 (nM)

Some compounds with known IC50 results, for comparison:
COC(=O)Nc1nc2ccc(C(=O)NC(C)CC(C)C)cc2[nH]1 (centres unmarked) [Cpd. No. 2-6] :: 500
COC(=O)Nc1nc2ccc(C(=O)NCCC(C)C)cc2[nH]1 [2-5] :: 5100
COC(=O)Nc1nc2ccc(NC(=O)CC(C)CC(C)(C)C)cc2[nH]1 (centres unmarked) [Cpd. No. 5-1] :: 7000
COC(=O)Nc1nc2ccc(OC(=O)c3cc(OC)c(OC)c(OC)c3)cc2[nH]1 [Cpd. No. 4-1] :: 170
COC(=O)Nc1nc2ccc(C(=O)OC(CCl)CCl)cc2[nH]1 [Cpd. No. 3-12] :: 2100
CCOCCOCCOC(=O)c1ccc2nc(NC(=O)OC)[nH]c2c1 [Cpd. No. 3-4] :: 27
COC(=O)Nc1nc2ccc(C(=O)Nc3cc(OC)c(OC)c(OC)c3)cc2[nH]1 [2-15] :: 4200
CCCCN(C)C(=O)c1ccc2nc(NC(=O)OC)[nH]c2c1 [2-17] :: 2500

1 = COC(=O)Nc1nc2ccc(C(=O)N(C)C3CCCCC3)cc2[nH]1 [Cpd. No. 2-16]
2 = COC(=O)Nc1nc2ccc(C(=O)OCCOCCCl)cc2[nH]1 [3-2]
query: Please tell me which of the two, 1 or 2 , has the higher reported IC50 value. Reply briefly: the label of your chosen item.
result: 1

I = COC(=O)Nc1nc2ccc(C(=O)NNc3ccccc3)cc2[nH]1 [Cpd. No. 2-12]
II = CCCN(CCC)C(=O)c1ccc2nc(NC(=O)OC)[nH]c2c1 [2-18]
query: Please tell me which of the two, I or II , has the higher reported IC50 value. Reply briefly: the label of your chosen item.
result: I
